Each entry below carries its recorded GI50.
- Test system: RXF 393
- Protocol Summary: NCI tumour cell line growth inhibition, 48 h
Active and inactive are the calls of the source. No stated cut-off is given here; in the data, active = GI50 up to about 1.1 µM and inactive = higher.

Illustrative cases are given below, each with its answer.
Compound: NNC(=O)c1ccccc1NC(=O)/C(=C/c1ccccc1)NC(=O)c1ccccc1
Value Reported: > 100 µM (inactive)
//
Compound: O=c1[nH]cc(-c2c[nH]c3ccccc23)nc1-c1c[nH]c2ccccc12
Value Reported: 2.74 µM (inactive)
//
Compound: Cc1ccc(S(N)(=O)=O)cc1 [P-TOLUENESULFONAMIDE]
Value Reported: 502 µM (inactive)
//
Compound: O=S(=O)(SCc1ccccc1)C(c1ccccc1)c1ccccc1
Value Reported: 21.9 µM (inactive)
//
Compound: CSc1ncnc2c1CCN2
Value Reported: > 10 µM (inactive)
//
Compound: O=c1c2cc(Br)cc(Br)c2nc(CCCl)n1CCO
Value Reported: 47.4 µM (inactive)
//
Compound: C/C(=N/NC(=S)Nc1ccccc1Cl)c1cccc(/C(C)=N\NC(=S)Nc2ccccc2Cl)n1
Value Reported: > 100 µM (inactive)
//
Compound: c1nc2nc[nH]c(SSc3[nH]cnc4ncnc3-4)c-2n1
Value Reported: > 100 µM (inactive)
//
Compound: Cc1ccc(/C=C2\CCCC(CN3CCCCC3)C2=O)cc1 (stereo unspecified)
Value Reported: 1.56 µM (inactive)
//
Compound: N=C(N)Nc1ccc(CC(N)NCC(=O)O)cc1 (stereo unspecified)
Value Reported: > 25 µM (inactive)

Challenge: Consider the compound CCCN(CCC)C(=O)Cc1c2n(c3ccccc13)CCCc1ccccc1-2 and give its measured GI50.
Response given: 10.4 µM (inactive)

* * *

- Test system: A549
- Protocol Summary: NCI tumour cell line growth inhibition, 48 h
Calls of active or inactive are those of the source. Cut-off read from the data, not from the text of the source: active = GI50 up to about 1.1 µM and inactive = higher.
Outcome (select one): T = active, F = inactive

Check out these entries, answers already filled in.
Compound: c1ccc(CSC(SCc2ccccc2)c2ccc3c(c2)OCO3)cc1
Label Value: F
//
Compound: COc1cc2c(cc1OC)[C@H]1C(COC(=O)c3ccccc3)CS/C(=N/c3ccccc3)N1CC2 (some centres not stated)
Label Value: F
//
Compound: NC(Cc1ccccc1)(C(=O)O)C(=O)O
Label Value: F

Challenge: What classification did [N-]=[N+]=CC(=O)CCC(=O)N(c1ccccc1)c1ccccc1 end up with in this test?
Response given: F

Challenge: What classification did C=CC(=O)Nc1ccc(NC(=O)C=C)c2c1C(=O)c1ccccc1C2=O end up with in this test?
Response given: F

Challenge: What classification did CC(=O)OC1=C(c2ccccc2)S(=O)(=O)c2ccccc21 end up with in this test?
Response given: F

Challenge: What classification did N#CC(C(=O)CCC(=O)Nc1ccc(Cl)c(Cl)c1)c1ccccc1 (configuration not stated) end up with in this test?
Response given: F

Challenge: What classification did Cc1cc(N(CCC#N)CCC#N)ccc1C(/N=N/c1ccc([N+](=O)[O-])cc1)=N\NC(=O)c1cc(Cl)ccc1C(=O)c1ccccc1 end up with in this test?
Response given: F

Challenge: What classification did N#CC1(c2ccccc2)CCN(C2(c3ccccc3)CCCCC2)CC1 end up with in this test?
Response given: F

Challenge: What classification did CC(C)(C)[Si](OC1CC(n2cnc3c(N)ncnc32)OC1CO)(c1ccccc1)c1ccccc1 (configuration not stated) end up with in this test?
Response given: F

Challenge: What classification did COc1cc(=O)oc(/C=C/CO)c1C end up with in this test?
Response given: F

Challenge: What classification did O=c1c(O)c(-c2ccc(O)c(O)c2)oc2cc(O)cc(O)c12 end up with in this test?
Response given: F

Challenge: What classification did CCCN(CCC)C(=S)Sc1nc(C)nc(N2CCN(c3nc(C)nc(SC(=S)N(CCC)CCC)c3[N+](=O)[O-])CC2)c1[N+](=O)[O-] end up with in this test?
Response given: F

Challenge: What classification did COC(=O)C(=O)C(C(=O)OC)C(=O)C(=O)Nc1cc(Cl)c(C)cc1S(=O)(=O)O (configuration not stated) end up with in this test?
Response given: F

Challenge: What classification did COC1CC2C=CC3C4OC2(/C(C)=C/C(C)C(C(C)O)OC1=O)C3C(O)C(C)C4OC(=O)c1ccc[nH]1 (configuration not stated) end up with in this test?
Response given: F

Challenge: What classification did CCCCCc1nnc(NS(=O)(=O)c2ccc(NC(=O)OCC(C)C)cc2)s1 end up with in this test?
Response given: F

Challenge: What classification did COc1cc2c(cc1O)[C@H](C)C(c1ccccc1OC)O2 (some centres not stated) end up with in this test?
Response given: F

Challenge: What classification did O=S(=O)(O)c1cccc2c(/N=N/c3c(O)ccc4ccccc34)cccc12 end up with in this test?
Response given: F

Challenge: What classification did Cc1cc(-c2ccccc2)nc(Nc2nc3ccccc3o2)n1 end up with in this test?
Response given: F
